Would you mind telling me the reported pIC50 of each entry?
# TEST SYSTEM: Caspase-1 (Homo sapiens, UniProt P29466)
# Sequence (P29466 120-297 limits assumed): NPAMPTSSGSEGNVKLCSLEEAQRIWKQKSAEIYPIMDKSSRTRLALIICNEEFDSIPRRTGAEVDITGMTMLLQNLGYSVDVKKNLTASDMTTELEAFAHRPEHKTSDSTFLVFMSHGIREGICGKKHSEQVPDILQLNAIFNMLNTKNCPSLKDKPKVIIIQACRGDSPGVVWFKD
# Sequence (P29466 317-404 limits assumed): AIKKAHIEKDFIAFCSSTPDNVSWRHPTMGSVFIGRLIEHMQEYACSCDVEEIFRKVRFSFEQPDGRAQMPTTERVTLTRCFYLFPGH
# ASSAY DETAILS: Inhibitory concentration against recombinant human caspase-1 in neuronal precursor (NT2) cells
Numbers only, as −log10 of the molar value.

Here are 4 molecules together with their reported answers.
1) CCCCCCCCN(C)CNCC(=O)[C@H](CC(=O)O)NC(=O)C(CC)n1ccnc(NCc2nonc2C)c1=O (stereo not given in full)    7.60
2) CCCN(C)CNCC(=O)[C@H](CC(=O)O)NC(=O)C(CC)n1ccnc(NCc2nonc2C)c1=O (stereo not given in full)    6.21
3) CCCCN(C)CNCC(=O)[C@H](CC(=O)O)NC(=O)C(CC)n1ccnc(NCc2nonc2C)c1=O (stereo not given in full)    7.51
4) CCC(C(=O)N[C@@H](CC(=O)O)C(=O)CSCc1ccccc1)n1ccnc(NCCCc2nc(C)no2)c1=O (stereo not given in full)    5.77

Q: Quote pIC50 reported for CCCCCCN(C)CNCC(=O)[C@H](CC(=O)O)NC(=O)C(CC)n1cc(CC)nc(NCc2nonc2C)c1=O (stereo not given in full) please.
A: 7.60
